- Assayed Target: T1, Bcl-w, Q92843
- T1 chain: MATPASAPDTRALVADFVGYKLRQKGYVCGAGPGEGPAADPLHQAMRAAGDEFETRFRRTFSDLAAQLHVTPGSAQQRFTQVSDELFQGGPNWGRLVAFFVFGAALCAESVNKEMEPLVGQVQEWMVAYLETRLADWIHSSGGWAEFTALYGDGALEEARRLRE
- Test Description: peptide SPOT array, c-Myc-tagged receptor at 1 uM or 100 nM, anti-c-Myc-Cy3
The following binders are listed with their measured SPOT signal as a fraction of Bim BH3's signal on the same receptor and array values.
Reply with just the number.

| Binder | Quantitative Result |
| --- | --- |
| ATKRETAATFLKKVAKEFGFQNNGFS [NPLOC4] | 0.77 |

I would be grateful if you could share the reported SPOT signal as a fraction of Bim BH3's signal on the same receptor and array for EERAQNVTRLLRKQAEEVNTEWEKLN [DMD] .
0.04

Need SPOT signal as a fraction of Bim BH3's signal on the same receptor and array, item AGLDMNISQFLKSLGLEHLRDIFETE [TNKS]
0.02
